Test system: SK-MEL-5 melanoma
Assay: NCI tumour cell line growth inhibition, 48 h
Outcome Measure: TGI

Take a look at these entries with their results.
Molecule	TGI
CCCCNc1nc(NC2OCC(OC(C)=O)C(OC(C)=O)C2OC(C)=O)c(N=O)c(=O)n1C (stereo not given)	> 10 µM
CC(C)(C)OC(=O)NCCCCC(N)NC(=O)c1ccccc1 (stereo not given)	> 100 µM
CCc1c(C)nc2sc3c(N)ncnc3c2c1C	> 25 µM

I would be grateful if you could share the reported TGI for COc1cc(C2(C)SCCCS2)cc(OC)c1OC .
> 100 µM

I would be grateful if you could share the reported TGI for CN=C1OC2(c3ccccc3)C3=C(OC(=NC)N2C)C(=O)OC3(c2ccccc2)N1C (stereo not given) .
> 100 µM

I would be grateful if you could share the reported TGI for NC(Cc1ccc(S(=O)(=O)O)cc1)C(=O)NC(Cc1ccc(S(=O)(=O)O)cc1)C(=O)NC(Cc1ccc(S(=O)(=O)O)cc1)C(=O)NC(Cc1ccc(S(=O)(=O)O)cc1)C(=O)O (stereo not given) .
> 100 µM

I would be grateful if you could share the reported TGI for COC(=O)C1CCC(=O)N1C(c1ccc2c(c1)OCO2)c1cc(OC)c(OC)c(OC)c1 (stereo not given) .
> 100 µM

I would be grateful if you could share the reported TGI for CCCC(S(=O)(=O)c1ccccc1)S(=O)(=O)c1ccccc1 .
> 100 µM

I would be grateful if you could share the reported TGI for N#Cc1nc(C#N)n(S(=O)(=O)c2ccccc2)c1NS(=O)(=O)c1ccccc1 .
> 100 µM

I would be grateful if you could share the reported TGI for CCOC(=O)c1c[nH]c2ccc3c(c2c1=O)S(=O)(=O)CC3 (tested in a mixture with another compound) .
> 100 µM
